tested on: Caco-2; test: cell viability relative to DMSO; higher = less toxic; conditions: 72 h; 1 nM
Exercise: for every item that follows, state its recorded cell viability.
Field: numeric (%). Do not append units.

**Query** Identify the reported cell viability for the following entry. O=S(=O)(NCC1CC1)c1ccc(Nc2nccc(N3CCCc4cc(O)ccc43)n2)cc1
**Result** 98.1

**Query** Identify the reported cell viability for the following entry. CC(C)(C)C(=O)OCOC(=O)[C@@H]1N2C(=O)C[C@H]2S(=O)(=O)C1(C)C
**Result** 99.3

**Query** Identify the reported cell viability for the following entry. CC(=O)SC[C@@H](Cc1ccccc1)C(=O)NCC(=O)OCc1ccccc1 (racemic)
**Result** 94.4

**Query** Identify the reported cell viability for the following entry. O=C(Nc1ccc(OC(F)(F)F)cc1)c1sccc1NCc1ccnc2ccccc12
**Result** 107

**Query** Identify the reported cell viability for the following entry. CCCCCCCCCCCCCC(=O)[O-].CCCCCCCCCCCCCC(=O)[O-].N[C@@H]1CCCC[C@H]1N.[Pt+2]
**Result** 102

**Query** Identify the reported cell viability for the following entry. C=C(NC(=O)C(=C)NC(=O)c1csc(C2=N[C@@H]3c4csc(n4)[C@H]4NC(=O)c5csc(n5)[C@H]([C@](C)(O)[C@@H](C)O)NC(=O)[C@H]5CSC(=N5)/C(=C/C)NC(=O)[C@H]([C@@H](C)O)NC(=O)c5csc(n5)[C@]3(CC2)NC(=O)[C@H](C)NC(=O)C(=C)NC(=O)[C@H](C)NC(=O)[C@H]([C@@H](C)CC)N[C@@H]2C=Cc3c([C@H](C)O)cc(nc3[C@H]2O)C(=O)O[C@@H]4C)n1)C(N)=O
**Result** 102

**Query** Identify the reported cell viability for the following entry. CN1C2CCCC1CC(NC(=O)c1nn(C)c3ccccc13)C2 (configuration not stated)
**Result** 96.7

**Query** Identify the reported cell viability for the following entry. O=C(Oc1cccc2cccnc12)c1ccccc1
**Result** 102

**Query** Identify the reported cell viability for the following entry. CC1(C)S[C@@H]2[C@H](NC(=O)COc3ccccc3)C(=O)N2[C@H]1C(=O)O
**Result** 97.5

**Query** Identify the reported cell viability for the following entry. Cc1cc(SCc2sc(-c3ccc(C(F)(F)F)c(F)c3)nc2C)ccc1OCC(=O)O
**Result** 99.9

**Query** Identify the reported cell viability for the following entry. O=C(N/N=C/c1ccc(O)c(O)c1)c1cc2ccccc2cc1O
**Result** 98.4

**Query** Identify the reported cell viability for the following entry. CC[C@@H]1C(=O)N(C)c2cnc(Nc3ccc(C(=O)NC4CCN(C)CC4)cc3OC)nc2N1C1CCCC1
**Result** 94.4

**Query** Identify the reported cell viability for the following entry. CC(N)Cc1ccc(O)cc1 (configuration not stated) [hydroxyamphetamine]
**Result** 107

**Query** Identify the reported cell viability for the following entry. O=C(O)c1cc(/N=N/c2ccc(S(=O)(=O)Nc3ccccn3)cc2)ccc1O
**Result** 108

**Query** Identify the reported cell viability for the following entry. Cc1noc(NS(=O)(=O)c2ccc(N)cc2)c1C
**Result** 95.7

**Query** Identify the reported cell viability for the following entry. CC(C)(C(=O)O)c1ccc(C(=O)CCCN2CCC(OC(c3ccccc3)c3ccccc3)CC2)cc1
**Result** 101

**Query** Identify the reported cell viability for the following entry. O=C(/C=C/c1cccnc1)NCCCCC1CCN(C(=O)c2ccccc2)CC1
**Result** 93.7
